Would you mind telling me the reported TGI of each entry?
- Test system: HOP-62 NSCLC
- Experimental details: NCI tumour cell line growth inhibition, 48 h

The recorded TGI for entry O=C(c1ccccc1)C(c1ccccc1)C1(O)C(=O)Nc2ccc(Br)cc21 (stereo unspecified) equals > 100 µM

The recorded TGI for entry O=C1OC(/C=C/c2ccccc2)C(=O)C1=O (stereo unspecified) equals > 100 µM

The recorded TGI for entry Cc1c(OCc2cccc3ccccc23)ccc2c(=O)cc(S)oc12 equals > 100 µM

The recorded TGI for entry Cn1c(=O)c2nc3sc4ccccc4c(=N)n3c2n(C)c1=O equals > 100 µM

The recorded TGI for entry COc1ccc(-c2nc3ccccc3c(=O)[nH]2)cc1OC equals > 100 µM

The recorded TGI for entry Cn1c(=O)ccc2cc(C(=O)c3ccccc3)ccc21 equals > 100 µM

The recorded TGI for entry COc1ccc(/C=C2\CCC(CN(C)C)C2=O)cc1 (stereo unspecified) equals 33.6 µM

The recorded TGI for entry CCOc1ccc(-n2cc(-c3ccc(N(C)C)cc3)[n+]3c2CCCCC3)cc1 equals > 77.9 µM

The recorded TGI for entry O=C1CCCC1C(O)(C(F)(F)Cl)C(F)(F)Cl (stereo unspecified) equals > 10 µM

The recorded TGI for entry COc1ccc(/C=N/C2=C(C#N)C(c3ccccc3)c3ccc4ccccc4c3O2)cc1 (stereo unspecified) equals > 100 µM

The recorded TGI for entry CCOC(=O)CCNC(=O)c1cc(C)cc2c1Oc1c(cc(C)cc1C(=O)NCCC(=O)OCC)S2 equals > 100 µM

The recorded TGI for entry CSc1nnc2n1-c1ccccc1SCC2 equals > 100 µM

The recorded TGI for entry COc1ccc(/C=C2\NC(=S)N(CN3CCOCC3)C2=O)cc1 equals > 100 µM

The recorded TGI for entry COc1ccccc1NC(=O)C(=O)C(C#N)CC(C)(C)C=O (stereo unspecified) equals > 100 µM

The recorded TGI for entry O=C(CN1CCOCC1)c1ccc2c(c1)oc(=O)n2CCN1CCCCC1 equals > 100 µM

The recorded TGI for entry O=Cc1ccc(Oc2c3ccccc3nc3ccccc23)cc1 equals 33.9 µM

The recorded TGI for entry FC(F)(F)c1ccc(N=NN2CCCC2)cc1 equals > 100 µM

The recorded TGI for entry COc1cc(Cl)c(C)cc1NC(=O)c1cc2ccccc2cc1O equals 10.3 µM

The recorded TGI for entry Cc1cc2c(C=O)[nH]nc2c(C#N)c1C equals > 100 µM

The recorded TGI for entry COc1ccc(/C=C/C(=O)N[C@@H]2C(=O)N3[C@@H]2SC(C)(C)[C@@H]3C(=O)O)cc1OC equals > 100 µM

The recorded TGI for entry COc1cc(C2C(C(=O)Nc3ccccc3C)=C(C)NC(C)=C2C(=O)Nc2ccccc2C)ccc1O equals > 100 µM

The recorded TGI for entry COc1ccc(OC)c2c1-c1nnnn1CCC2(C)C equals > 100 µM

The recorded TGI for entry Cc1csc(CP(=O)(OC(C)C)OC(C)C)n1 equals > 100 µM

The recorded TGI for entry C=CCOC1=C(OC(C)=O)C(C2COC(C)(C)O2)OC1=O (stereo unspecified) equals > 100 µM

The recorded TGI for entry CCN(CC)CCCNc1c2cc(OC)ccc2nc2cccc([N+](=O)[O-])c12 equals 0.412 µM

The recorded TGI for entry CCN(CC)[C@@H]1c2cc3c(cc2C(c2cc(OC)c(O)c(OC)c2)C2C(=O)CO[C@@H]21)OCO3 (stereo partly specified) equals > 100 µM

The recorded TGI for entry COc1cc2c(cc1OC)-c1c(c3ccc([N+](=O)[O-])cc3c(=O)n1CCCBr)C2=O equals > 100 µM

The recorded TGI for entry O=C(Nc1ccccn1)c1cc2c(cc1Cl)Sc1nccn1S2(=O)=O equals > 100 µM

The recorded TGI for entry O=c1oc2ccc([N+](=O)[O-])cc2cc1-c1csc(-c2ccccc2)n1 equals > 100 µM

The recorded TGI for entry Cc1cnc2n(c1=O)Cc1ccccc1CO2 equals 38 µM

The recorded TGI for entry C[C@H](N)C(=O)Nc1ccc(-c2nc3ccccc3s2)cc1Cl equals 26 µM

The recorded TGI for entry NCCCCNCCCNC(=O)c1csc(-c2nc(CCN)sc2Cl)n1 equals > 100 µM

The recorded TGI for entry O=CN/C=C\c1cc(O)ccc1O equals 60.2 µM

The recorded TGI for entry C/C(=N\O)c1ccc(Nc2cc(-c3ccccc3)nc3c(O)cccc23)cc1 equals 26.6 µM

The recorded TGI for entry COc1ccc2oc(=O)c(-c3nc4ccccc4s3)cc2c1 equals > 48.1 µM

The recorded TGI for entry CCCCCCCCCCCCCCCc1nc(SCC(=O)O)n[nH]1 equals > 100 µM

* * *

- System: U251 CNS
- Experimental details: NCI tumour cell line growth inhibition, 48 h
Would you mind telling me the reported TGI of each entry?

The recorded TGI for entry COc1cc(-c2cc(C(=O)N3CCN(C(=O)c4ccccc4NCc4cccs4)CC3)nc3cc(-c4ccccc4)nn23)cc(OC)c1OC equals > 100 µM

The recorded TGI for entry O=C1N(c2ccccc2)N=C2c3ccncc3C3=NN(c4ccccc4)C(=O)C123 (configuration not stated) equals > 100 µM

The recorded TGI for entry COc1ccc(/C=C/c2cnnc3ccccc23)cc1OC equals > 10 µM

The recorded TGI for entry OC1OC2COC(c3ccccc3)OC2C(O)C1O (configuration not stated) equals > 100 µM

The recorded TGI for entry O=C1/C=C/[C@@H](O)[C@@H]2C[C@@H](O)C[C@H]2/C=C/CCCCO1 equals > 100 µM

The recorded TGI for entry FC(F)(F)c1ccc(N=NN2CCCC2)cc1 equals > 100 µM

The recorded TGI for entry COc1cc(-c2nc3cc(Cl)c(Cl)cc3[nH]2)ccc1OCC(=O)N=Nc1c(O)[nH]c2ccccc12 equals 0.681 µM

The recorded TGI for entry COc1ccc(OC/C(N=Cc2cccnc2)=N/NC(=O)c2ccncc2)cc1 equals > 100 µM

The recorded TGI for entry COc1ccc2c(c1)[n+](=O)c(C(=O)C/C(=N\NC(=O)C[N+](C)(C)C)C(=O)Nc1cc(Cl)ccc1Cl)c(C)n2O equals > 100 µM

The recorded TGI for entry O=C(O)c1cc2sc(C(=O)O)cc2s1 equals > 100 µM

The recorded TGI for entry CCC1(O)CC(c2ccccc2)N(C)C(c2ccccc2)C1 (configuration not stated) equals > 100 µM

The recorded TGI for entry CC(NC(=O)C1(N)CCCC1)C(=O)O (configuration not stated) equals > 100 µM

The recorded TGI for entry COc1ccc(-c2nn(C(=O)c3cc(OC)c(OC)c(OC)c3)c3cc(N)ccc23)cc1 equals 1.87 µM

The recorded TGI for entry O=[N+]([O-])c1ccc(N/N=C\c2ccc(O)cc2O)nc1 equals > 100 µM

The recorded TGI for entry O=C(NCCOCCO)c1ccc(O)cc1 equals > 100 µM

The recorded TGI for entry O=C1C=C(NCCc2ccc(O)cc2)C(=O)C=C1NCCc1ccc(O)cc1 equals 92.5 µM

The recorded TGI for entry Cc1cn(C2CC(/[N+]([O-])=N\Nc3ccc([N+](=O)[O-])cc3)C(CO)O2)c(=O)[nH]c1=O (configuration not stated) equals > 100 µM

The recorded TGI for entry COc1cc(C2C(Cl)C(=O)N2NC(=O)c2ccccc2O)cc(OC)c1OC (configuration not stated) equals > 10 µM

The recorded TGI for entry COc1ccc2nc3c(cc2c1)C(=O)CC(C(F)(F)F)C3 (configuration not stated) equals > 100 µM

The recorded TGI for entry NC1=C(O)/C(=N/NS(=O)(=O)c2ccccc2)C(c2cccc(Cl)c2)O1 (configuration not stated) equals 55.7 µM

The recorded TGI for entry CCOC(=O)C(C(=O)OCC)C(=S)NC1OC(COC(C)=O)C(OC(C)=O)C(OC(C)=O)C1OC(C)=O (configuration not stated) equals > 100 µM

The recorded TGI for entry COc1cc(CNC(=O)CCCCCCCCCCSC#N)ccc1O equals 34.1 µM

* * *

- Tested on: A498 renal
- Experimental details: NCI tumour cell line growth inhibition, 48 h; in the data active = GI50 below about 0.43 µM; inactive = the rest
Give one outcome, nothing more. List: active, inactive

Ask | Query: recorded result category for COc1ccc(-c2nn(C(=O)c3cc(OC)c(OC)c(OC)c3)c3cc(N)ccc23)cc1 in this test
Reply | active

Ask | Query: recorded result category for CCCCCCCCCCCC(=O)[O][Sn]([CH2]CCC)([CH2]CCC)[CH2]CCC in this test
Reply | active

Ask | Query: recorded result category for COc1ccc(-n2cc(-c3ccc(F)cc3)[nH]c2=O)cc1OC in this test
Reply | inactive

Ask | Query: recorded result category for Cc1nc(N(C)C)nc(-c2cccc(-c3ccn(CCN(C)C)n3)c2)c1C in this test
Reply | inactive

Ask | Query: recorded result category for Nc1c(C(=O)Nc2cccc3ccccc23)sc2nc3c(cc12)CCCCCC3 in this test
Reply | inactive

Ask | Query: recorded result category for C=C(C=O)[C@@H]1CC=C(C=O)CC1 in this test
Reply | inactive

Ask | Query: recorded result category for O=c1c(-c2nc3ccccc3[nH]2)cc2ccccc2n1Cc1cn(Cc2ccc(F)cc2)nn1 in this test
Reply | active

Ask | Query: recorded result category for Nc1ncnc2c1c(-c1ccc(Oc3ccccc3)cc1)nn2C[C@H]1SSC[C@H]1O in this test
Reply | inactive

Ask | Query: recorded result category for O=[N+]([O-])c1ccc(N/N=C\c2ccc(O)cc2O)nc1 in this test
Reply | inactive

Ask | Query: recorded result category for Clc1ccc2c(NCCCNCc3ccc4c(c3)OCO4)ccnc2c1 in this test
Reply | inactive

Ask | Query: recorded result category for COc1cc(/C=C2\CCCC3=C2N=C2SC=NN2C3c2cc(OC)c(OC)c(OC)c2)cc(OC)c1OC (centres undefined) in this test
Reply | inactive

Ask | Query: recorded result category for Nc1nc(-c2ccccc2Cl)cc(-c2ccc(Cl)cc2Cl)n1 in this test
Reply | inactive

Ask | Query: recorded result category for COc1ccc2c(C(=O)NCCCCCC(=O)O)cc3cc4c(cc3c2c1)OCO4 in this test
Reply | inactive

Ask | Query: recorded result category for CCOc1ccc(-n2cc(-c3ccc(N(C)C)cc3)[n+]3c2CCCCC3)cc1 in this test
Reply | inactive
